- Test system: HCT116;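 note: Luminescence-based viability readout, five doses per compound, normalized against on-plate DMSO and empty-well controls, followed by dose-response curve fitting for every drug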
- experimentNotes: efficacy (fitted maximal change in viability relative to DMSO control); higher = less cytotoxic (negative = loss of viability)
- experimentalContext: 48 h
reportedMetric: efficacy (%)

[
  {
    "molecule": "CN[C@@H](C)C(=O)N[C@H]1CN(C(=O)CC(C)C)CC[C@H]2CC[C@@H](C(=O)NC(c3ccccc3)c3ccccc3)N2C1=O [AT-406]",
    "reportedMetric": "efficacy",
    "recordedNumber": -8.4
  },
  {
    "molecule": "CC[C@H]1/C=C\\C=C/C[C@@H](C)[C@H](O)[C@@](C)(O)C(=O)[C@@H](C)[C@H](O)[C@@H](C)C(=O)[C@@H](C)[C@H](O)[C@@H](C)/C=C/C(=O)O[C@@H]2[C@H](C)[C@H](CC1)O[C@]1(CC[C@H](C)[C@H](C[C@@H](C)O)O1)[C@H]2C [Oligomycin A]",
    "reportedMetric": "efficacy",
    "recordedNumber": -112
  },
  {
    "molecule": "O=C1N(c2ccccc2)c2ccccc2C1(Cc1ccncc1)Cc1ccncc1 [Linopirdine]",
    "reportedMetric": "efficacy",
    "recordedNumber": -12.1
  },
  {
    "molecule": "O=C(O)c1ccc(O)c2ncccc12 [IOX-1]",
    "reportedMetric": "efficacy",
    "recordedNumber": -36.7
  },
  {
    "molecule": "C/C(=C\\C(=O)Nc1ccccc1C(=O)O)c1ccc2ccccc2c1 [BIBR-1532]",
    "reportedMetric": "efficacy",
    "recordedNumber": -69.1
  },
  {
    "molecule": "O=[N+]([O-])c1ccc(O)c2ncccc12 [Nitroxoline]",
    "reportedMetric": "efficacy",
    "recordedNumber": -96.2
  },
  {
    "molecule": "OC[C@H]1O[C@H]([C@H](O)[C@@H](O)[C@@H]1O)C2=C(O)C=CC3=C2O/C=C(C3=O)/C4=CC=C(O)C=C4 [Puerarin]",
    "reportedMetric": "efficacy",
    "recordedNumber": -15.8
  },
  {
    "molecule": "COc1cc2ncnc(-n3nc(-c4ccccn4)nc3N)c2cc1OC",
    "reportedMetric": "efficacy",
    "recordedNumber": -47.9
  },
  {
    "molecule": "COc1cc2c(Nc3ccc(Br)cc3F)ncnc2cc1OCC1CCN(C)CC1 [Vandetanib]",
    "reportedMetric": "efficacy",
    "recordedNumber": -108
  },
  {
    "molecule": "CN1CCN(C(=O)c2ccc(-c3ccc4c(C=O)c(O)ccc4c3)s2)CC1 [MKC-3946]",
    "reportedMetric": "efficacy",
    "recordedNumber": -13.9
  },
  {
    "molecule": "C[C@@H]1[C@H](O)[C@@H](C)/C=C/C=C/C=C/C=C/C=C/C=C/C=C/[C@H](O[C@@H]2O[C@H](C)[C@@H](O)[C@H](N)[C@@H]2O)C[C@@H]2O[C@](O)(C[C@@H](O)C[C@@H](O)[C@H](O)CC[C@@H](O)C[C@@H](O)CC(=O)O[C@H]1C)C[C@H](O)[C@H]2C(=O)O [Amphotericin B]",
    "reportedMetric": "efficacy",
    "recordedNumber": -15.3
  },
  {
    "molecule": "CN[C@H]1CCC2=CC(=C(OC)C(=C2C/3=C/C=C(OC)\\C(=O)/C=C13)OC)OC [Demecolcine]",
    "reportedMetric": "efficacy",
    "recordedNumber": -62.6
  },
  {
    "molecule": "CC(C)(C)C(=O)N1\\N=C/C[C@H]1C2=CC=CC=C2 [GSK-963]",
    "reportedMetric": "efficacy",
    "recordedNumber": -9.61
  },
  {
    "molecule": "CC(C(=O)O)c1ccc2c(c1)CC(=O)c1ccccc1S2 (stereo not given) [Zaltoprofen]",
    "reportedMetric": "efficacy",
    "recordedNumber": 8.02
  },
  {
    "molecule": "Cc1cc2c(C(C)C)c(O)c(O)c(C=O)c2c(O)c1-c1c(C)cc2c(C(C)C)c(O)c(O)c(C=O)c2c1O [(-)-Gossypol]",
    "reportedMetric": "efficacy",
    "recordedNumber": -115
  }
]
